- system_tested: IdeR Q43A (Saccharopolyspora erythraea DSM 40517, UniProt A0ABF7PL34 1-231, Q43A)
- protocol_text: EMSA; 30 uM Co2+; EMSA: 15 mM Tris-acetate pH 7.3, 4 mM K-acetate, 10% glycerol, 17 ng/ul poly(dI-dC), 30 nM DNA, 30 uM Co2+, IdeR 15 nM-2.25 uM dimer, 20 min room temperature; 4% native gel at 4 C
- condition_label: protein: recombinant; tags: N-terminal His6 removed by TEV; Gly-His remains before Met1; chain copies: 4; label: 5' Cy5 or 5' FAM on strand 1; blunt

# binder, Kd
measured = [
    ("Consensus_Full (dsDNA) DNA 1: CGTACTTAGGTTAGGCTAACCTAAGTACG DNA 2: CGTACTTAGGTTAGCCTAACCTAAGTACG", "~65 nM"),
]

// provenance: paper PMC8464063
